Please go through the items and note down their Vmax.
- Measured Target: Rat recombinant α2,3(O)ST (Rattus norvegicus)
- Construct: purchased Calbiochem
- Sequence (Q11205 1-350): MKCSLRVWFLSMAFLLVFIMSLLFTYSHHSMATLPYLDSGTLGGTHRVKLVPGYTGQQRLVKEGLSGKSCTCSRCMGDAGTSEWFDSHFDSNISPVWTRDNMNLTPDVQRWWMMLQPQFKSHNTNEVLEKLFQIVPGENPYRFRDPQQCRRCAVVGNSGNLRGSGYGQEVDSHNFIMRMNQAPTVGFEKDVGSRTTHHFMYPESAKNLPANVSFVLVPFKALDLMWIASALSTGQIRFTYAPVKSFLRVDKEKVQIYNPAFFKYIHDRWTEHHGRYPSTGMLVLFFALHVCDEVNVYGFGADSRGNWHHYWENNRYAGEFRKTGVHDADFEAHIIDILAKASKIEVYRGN
- Test Protocol: Sialyltransferase assay with cloned α2,3(O)ST
- Type: biochemical
- Details: CMP-NeuAc 150 μM; Lineweaver-Burke plot
- Protocol: Rat recombinant α2,3(O)ST, α2,3(N)ST and α2,6(N)ST were purchased from Calbiochem and stored at either −20° C. or −70° C. as recommended by the supplier. […] 10 μl aliquots of the diluted enzymes were used in the assays run in duplicate. […] The radioactive products from benzylglycosides and monosialylated benzylglycosides were measured by hydrophobic chromatography on Sep-Pak C18 cartridge (Waters, Milford, Mass.) and eluting the product with 3.0 ml methanol (30). […]
One number for each entry, in pmol/h.

Previously resolved entries follow.
Molecule	Quantity Unit	Observed Result
CO[C@@H]1[C@H](O)[C@@H](O)[C@H](O[C@H]2[C@@H](O)[C@@H](CO)O[C@H](OCc3ccccc3)[C@@H]2NC(C)=O)O[C@@H]1CO	pmol/h	1250
CC(=O)N[C@H]1[C@@H](OCc2ccccc2)O[C@H](CO)[C@H](O)[C@@H]1O[C@@H]1O[C@H](CO)[C@H](F)[C@H](O)[C@H]1O	pmol/h	1442

Would you kindly share the measured Vmax for COC1OC(CO)C(O)C(OC2OC(CO)C(O)C(OC3OC(CO)C(O)C(OS(=O)(=O)O)C3O)C2NC(C)=O)C1O (stereo not drawn) ?
416
